experimental.system: T1, human ROR1 (hROR1) on cells (human, UniProt Q01973 30-937)
T1 construct: whole, on cells; the cell line is named under assay; also called HEK293T-hROR1; 293T-hROR1
T1 sequence (Q01973 30-937): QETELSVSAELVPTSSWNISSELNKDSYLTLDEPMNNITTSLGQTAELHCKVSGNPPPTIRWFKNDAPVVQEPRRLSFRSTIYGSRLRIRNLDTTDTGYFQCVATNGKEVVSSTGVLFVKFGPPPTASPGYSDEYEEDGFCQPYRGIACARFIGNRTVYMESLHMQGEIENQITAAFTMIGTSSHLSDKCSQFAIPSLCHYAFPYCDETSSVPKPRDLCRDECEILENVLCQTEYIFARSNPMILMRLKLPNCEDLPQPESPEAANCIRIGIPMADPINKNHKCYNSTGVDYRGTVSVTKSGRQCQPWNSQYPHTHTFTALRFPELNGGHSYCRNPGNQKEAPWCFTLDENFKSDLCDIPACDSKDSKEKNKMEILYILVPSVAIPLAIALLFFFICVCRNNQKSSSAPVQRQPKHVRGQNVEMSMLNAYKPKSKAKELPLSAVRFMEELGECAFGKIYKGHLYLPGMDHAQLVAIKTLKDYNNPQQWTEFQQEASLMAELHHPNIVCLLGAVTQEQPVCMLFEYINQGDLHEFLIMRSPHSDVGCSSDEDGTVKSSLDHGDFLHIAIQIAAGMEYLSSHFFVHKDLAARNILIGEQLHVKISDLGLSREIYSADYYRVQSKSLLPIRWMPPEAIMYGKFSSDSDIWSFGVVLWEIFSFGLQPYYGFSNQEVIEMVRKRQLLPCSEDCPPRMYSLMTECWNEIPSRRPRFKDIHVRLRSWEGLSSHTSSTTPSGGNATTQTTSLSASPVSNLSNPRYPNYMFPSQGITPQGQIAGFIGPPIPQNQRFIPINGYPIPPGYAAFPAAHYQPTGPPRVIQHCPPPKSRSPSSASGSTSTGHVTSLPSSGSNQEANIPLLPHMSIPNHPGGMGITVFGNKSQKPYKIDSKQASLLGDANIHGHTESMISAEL
measurement.protocol: FACS, HEK293T-hROR1 cells; also: test concentration or dose not given here
Please provide measured MFI for the entries that follow.
Answers are plain numbers, in MFI.

Observe how each entry below is paired with its result.
[[record]]
binder = "PR001364 (antibody, human IgG1, kappa, V domains shown, fully human IgG1, kappa; also called anti-ROR1 1015M3-D8 hIgG1; PR001364(WT)) VH: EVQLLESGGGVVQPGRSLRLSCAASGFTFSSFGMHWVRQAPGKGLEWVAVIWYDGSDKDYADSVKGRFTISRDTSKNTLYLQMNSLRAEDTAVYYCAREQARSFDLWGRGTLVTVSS VL: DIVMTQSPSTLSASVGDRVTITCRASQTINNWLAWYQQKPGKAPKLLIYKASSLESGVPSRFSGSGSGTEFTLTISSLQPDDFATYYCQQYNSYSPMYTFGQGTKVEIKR"
recorded_measurement = 43100

[[record]]
binder = "PR002570 (antibody, human IgG1, kappa, V domains shown, PR001356 variant: VH D54E; hIgG1; also called anti-ROR1 1015M2-E6(H: D54E) hIgG1) VH: QVQLVESGGGVVQPGRSLRLSCAASGFTFSSYGMHWVRQAPGKGLEWVAVAWYEGVSEDYADSVKGRFTISRDNAKNTLYLQMNSLRAEDTAVYYCAREQARSFDLWGRGTLVTVSS VL: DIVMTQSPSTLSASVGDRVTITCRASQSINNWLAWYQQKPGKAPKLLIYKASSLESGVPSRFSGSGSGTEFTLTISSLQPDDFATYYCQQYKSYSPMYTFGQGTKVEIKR"
recorded_measurement = 43100

[[record]]
binder = "PR002580 (antibody, human IgG1, kappa, V domains shown, PR001369 variant: VL N92Q; hIgG1; also called anti-ROR1 1015M3-H10(L: N92Q) hIgG1) VH: QVQLVESGGGVVQPGRSLRLSCAASGFTFSNYGIHWVRQAPGKGLEWVAIMWYDGSNTDYADSVKGRFTISRDTSKNTLFLQMNSLRAEDTAVYYCAREQARSFDLWGRGTLVTVSS VL: DIVMTQSPSTLSASVGDRVTITCRASQTINNWLAWYQQKPGKAPKLLIYKASSLESGVPSRFSGSGSGTEFTLTISSLQPDDFATYYCQQYQSYSPMYTFGQGTKVEIKR"
recorded_measurement = 42500

[[record]]
binder = "PR002562 (antibody, human IgG1, kappa, V domains shown, PR001354 variant: VL N92Q; hIgG1; also called anti-ROR1 1015M2-C9(L: N92Q) hIgG1) VH: QVQLVQSGGGVVQPGRSLRLSCAASGFTFSSYGMHWVRQAPGKGLEWVAIMWYDGSDKDYADSVKGRFTISRDTSKNTLYLQMNSLRAEDTAVYYCAREQARSFDLWGRGTLVTVSS VL: DIVMTQSPSSLSASVGDRVTITCRASQTINNWLAWYQQKPGKAPKLLIYKASSLESGVPSRFSGSGSGTEFTLTISSLQPDDFATYYCQQYQSYSPMYTFGQGTKVEIKR"
recorded_measurement = 43900


Let's switch to this binder now.
Value of measured MFI for the entry PR002565 (antibody, human IgG1, kappa, V domains shown, PR001354 variant: VH D54E, VL N92Q; hIgG1; also called anti-ROR1 1015M2-C9(H: D54E; L: N92Q) hIgG1) VH: QVQLVQSGGGVVQPGRSLRLSCAASGFTFSSYGMHWVRQAPGKGLEWVAIMWYEGSDKDYADSVKGRFTISRDTSKNTLYLQMNSLRAEDTAVYYCAREQARSFDLWGRGTLVTVSS VL: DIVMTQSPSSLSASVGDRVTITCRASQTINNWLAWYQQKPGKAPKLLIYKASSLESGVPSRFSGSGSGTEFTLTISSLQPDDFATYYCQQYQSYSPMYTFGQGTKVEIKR : 46900
